This collection of values is drawn from patent US8614239B2.

System: BRAF (V599E)-MEK1-ERK2 cascade (MAP kinase pathway)
Procedure Text: BRAF-MEK-ERK enzymatic cascade assay (TR-FRET)
Type: biochemical, human
Condition Context: compound at 10 μM, 45 min pre-incubation with enzymes, 100 μM ATP, 90 min reaction
Experimental Endpoint: % inhibition (10 μM) (%)
The reply should be a number in %, with the unit left off.

Known results for compounds:
>  <Compound>
Cc1nc2c(F)c(F)c(Nc3ccc(I)cc3F)c(NS(=O)(=O)C3CC3)c2o1

>  <Experimental System>
BRAF (V599E)-MEK1-ERK2 cascade (MAP kinase pathway)

>  <Unit Symbol>
%

>  <% inhibition (10 μM)>
93

$$$$
>  <Compound>
O=S(=O)(Nc1c(Nc2ccc(I)cc2F)c(F)c(F)c2ncoc12)C1CC1CO (stereo not drawn)

>  <Experimental System>
BRAF (V599E)-MEK1-ERK2 cascade (MAP kinase pathway)

>  <Unit Symbol>
%

>  <% inhibition (10 μM)>
99

$$$$
>  <Compound>
O=S(=O)(Nc1c(Nc2ccc(Br)cc2F)c(F)c(F)c2ncoc12)C1CC1

>  <Experimental System>
BRAF (V599E)-MEK1-ERK2 cascade (MAP kinase pathway)

>  <Unit Symbol>
%

>  <% inhibition (10 μM)>
92

$$$$

[in] Any idea what % inhibition (10 μM) was measured for O=S(=O)(Nc1c(Nc2ccc(I)cc2F)c(F)c(F)c2ccoc12)C1(CC(O)CO)CC1 (stereo not drawn) ?
[out] 100

[in] So what's the measured % inhibition (10 μM) for this one? "O=S(=O)(Nc1c(Nc2ccc(I)cc2F)c(F)c(F)c2ncoc12)C1(COCc2ccccc2)CC1"
[out] 95

[in] Could you share which % inhibition (10 μM) value was measured for "Cc1nc2c(F)c(F)c(Nc3ccc(Br)cc3F)c(NS(=O)(=O)C3CC3)c2o1" ?
[out] 10

[in] Given the entry "O=S(=O)(Nc1c(Nc2ccc(I)cc2F)c(F)c(F)c2ccoc12)C1(CCO)CC1" , report its measured % inhibition (10 μM).
[out] 100

[in] Param item = "O=S(=O)(Nc1c(Nc2ccc(I)cc2F)c(F)c(F)c2ccoc12)C1CC1" ; retrieve measured % inhibition (10 μM).
[out] 99

[in] Given the compound "Cc1nc2c(F)c(F)c(Nc3ccc(I)cc3F)c(NS(=O)(=O)N(C)C)c2o1" , what is its reported % inhibition (10 μM)?
[out] 100

[in] Please look up its % inhibition (10 μM): O=S(=O)(Nc1c(Nc2ccc(I)cc2F)c(F)c(F)c2ncoc12)C1(CC(O)CO)CC1 (single isomer, unassigned) [Example 1J-isomer 1]
[out] 99

[in] Which % inhibition (10 μM) value is on record for "CN(C)S(=O)(=O)Nc1c(Nc2ccc(Br)cc2F)c(F)c(F)c2ncoc12" ?
[out] 99

[in] Quick one: % inhibition (10 μM) of "C=CCC1(S(=O)(=O)Nc2c(Nc3ccc(I)cc3F)c(F)c(F)c3ncoc23)CC1" ?
[out] 100

---

System: BRAF (V599E)-MEK1-ERK2 cascade (MAP kinase pathway)
Procedure Text: BRAF-MEK-ERK enzymatic cascade assay (TR-FRET)
Format: biochemical, human
Condition Context: compound at 10 μM, 45 min pre-incubation with enzymes, 100 μM ATP, 90 min reaction
Experimental Endpoint: % inhibition (10 μM) (%)
Return type: number; implicit unit %.

>  <Molecule>
O=S(=O)(Nc1c(Nc2ccc(I)cc2F)c(F)c(F)c2ncoc12)C1(CC(O)CO)CC1 (stereo not drawn) [Example 1I]

>  <Experimental System>
BRAF (V599E)-MEK1-ERK2 cascade (MAP kinase pathway)

>  <Unit Symbol>
%

>  <Measured Value>
100

$$$$

[in] Item under review: O=S(=O)(Nc1c(Nc2ccc(I)cc2F)c(F)c(F)c2ncoc12)C1(CC(O)CO)CC1 (single isomer, unassigned) [Example 1J-isomer 2] . Reported % inhibition (10 μM)?
[out] 99

[in] Given the entry "O=S(=O)(Nc1c(Nc2ccc(I)cc2F)c(F)c(F)c2ncoc12)C1(CO)CC1" , report its measured % inhibition (10 μM).
[out] 100

[in] Query: % inhibition (10 μM); subject: O=S(=O)(Nc1c(Nc2ccc(I)cc2F)c(F)c(F)c2ccoc12)C1CC1CO (stereo not drawn)
[out] 99

[in] # get_value(readout='% inhibition (10 μM)', item= O=S(=O)(Nc1c(Nc2ccc(I)cc2F)c(F)c(F)c2ncoc12)C1CC1COCc1ccccc1 (stereo not drawn) )
[out] 100

[in] Fill in the blank: the reported % inhibition (10 μM) of "CN(C)S(=O)(=O)Nc1c(Nc2ccc(I)cc2F)c(F)c(F)c2ncoc12" is ____.
[out] 100
